pIC50: −log10 of the molar value.
experimental_readout: pIC50

Lab note: need pIC50 for Cc1nc(CO)sc1-c1csc(NC(=O)C2CCC(F)(F)C2)n1 (stereo not drawn) on UniProt:P08684, anyone have it?
< 4.70

Lab note: need pIC50 for `Cc1nc(C(=O)NO)sc1-c1csc(NC(=O)Cc2c(F)cccc2F)n1` on UniProt:P08684, anyone have it?
< 4.70

Lab note: need pIC50 for `Cc1nc(C)c(-c2csc(NC(=O)Cn3cc(Cl)cn3)n2)s1` on UniProt:P08684, anyone have it?
< 4.70

* * *

- target_or_test_system: human TRPV4 (hTRPV4/CHO cells) (Homo sapiens)
- Construct: expressed in transfected cells; host or cells: CHO-K1
- Sequence (Q9HBA0 whole entry): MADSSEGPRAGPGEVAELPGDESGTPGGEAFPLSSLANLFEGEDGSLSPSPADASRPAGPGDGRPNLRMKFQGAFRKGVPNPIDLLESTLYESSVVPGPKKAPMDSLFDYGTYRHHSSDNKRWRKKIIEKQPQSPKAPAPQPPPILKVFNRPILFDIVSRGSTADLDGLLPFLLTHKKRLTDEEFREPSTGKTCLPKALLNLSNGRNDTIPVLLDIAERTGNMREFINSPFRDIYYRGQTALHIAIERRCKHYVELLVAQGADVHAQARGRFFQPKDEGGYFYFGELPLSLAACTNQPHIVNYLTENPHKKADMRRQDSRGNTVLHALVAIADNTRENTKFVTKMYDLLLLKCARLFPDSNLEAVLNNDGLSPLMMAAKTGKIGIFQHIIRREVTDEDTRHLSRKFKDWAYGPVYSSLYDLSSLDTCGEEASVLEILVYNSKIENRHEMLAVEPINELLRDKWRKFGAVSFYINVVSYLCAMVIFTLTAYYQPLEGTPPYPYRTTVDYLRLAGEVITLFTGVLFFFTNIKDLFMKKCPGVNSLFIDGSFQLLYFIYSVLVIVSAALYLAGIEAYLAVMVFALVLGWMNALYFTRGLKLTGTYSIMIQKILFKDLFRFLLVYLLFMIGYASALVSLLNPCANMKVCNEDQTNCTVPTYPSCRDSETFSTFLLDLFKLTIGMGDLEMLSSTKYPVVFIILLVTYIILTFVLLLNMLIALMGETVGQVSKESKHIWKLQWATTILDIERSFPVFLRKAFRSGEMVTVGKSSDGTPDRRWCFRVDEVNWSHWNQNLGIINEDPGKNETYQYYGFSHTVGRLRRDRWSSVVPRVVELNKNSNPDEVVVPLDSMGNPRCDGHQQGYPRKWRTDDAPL
- experiment_notes: Test Example 1: TRPV4 inhibitory activity (IC50 value), 4α-PDD stimulation, Fluo4 calcium fluorescence (FLIPR TETRA)
- Format: cell-based
- condition_description: Test Example 1, 4α-PDD stimulation, read-out: Test 1 IC50
For each entry below, report its IC50 value.

Which measured IC50 value corresponds to Cc1nc(CO)sc1-c1csc(NC(=O)C2CN(c3cccnc3C(F)(F)F)C2)n1 [Compound I-310] ?
< 100 nM

Which measured IC50 value corresponds to Cc1nc(CO)sc1-c1csc(NC(=O)C2CCN(S(=O)(=O)C(F)(F)F)C2)n1 (centres unmarked) [Compound I-214] ?
100 to 1000 nM

Which measured IC50 value corresponds to O=C(Nc1nc(-c2sc(CO)nc2CO)cs1)[C@@H]1C[C@@H](c2ccccc2)CN1CC(F)(F)F [Compound I-337] ?
1000 to 8000 nM

Which measured IC50 value corresponds to Cc1nc(C)c(-c2csc(NC3CCCC3)n2)s1 [II-38] ?
< 100 nM

Which measured IC50 value corresponds to Cc1nc(C)c(-c2csc(NC(=O)Cc3cc(C(=O)N[C@H](c4ccccc4)C(F)(F)F)cc(-c4nnn[nH]4)c3)n2)s1 [Compound I-520] ?
1000 to 8000 nM

Which measured IC50 value corresponds to Cc1nc(C(C)O)sc1-c1csc(NC(=O)C2CCN(c3ccccc3)C2)n1 (centres unmarked) [Compound I-295] ?
100 to 1000 nM

Which measured IC50 value corresponds to Cc1nc(C)c(-c2csc(NC(=O)Cn3cc(C#N)cn3)n2)s1 [Compound I-123] ?
1000 to 8000 nM

Which measured IC50 value corresponds to Cc1nc(C)c(-c2csc(NC(=O)Cc3ccc(S(=O)(=O)N(C)c4cccc(Cl)c4)cc3)n2)s1 [Compound I-161] ?
< 100 nM

* * *

- target_or_test_system: human TRPV4 (hTRPV4/CHO cells) (Homo sapiens)
- Construct: expressed in transfected cells; host or cells: CHO-K1
- experiment_notes: Test Example 1: TRPV4 inhibitory activity (IC50 value), 4α-PDD stimulation, Fluo4 calcium fluorescence (FLIPR TETRA)
- Type: cell-based
- condition_description: Test Example 1, 4α-PDD stimulation, read-out: Test 1 IC50
For each entry below, report its IC50 value.

Which measured IC50 value corresponds to `Cc1nc(C)c(-c2csc(NC(=O)[C@H]3C[C@H](Oc4ccc(C(F)(F)F)cc4)C3)n2)s1` ?
< 100 nM

Which measured IC50 value corresponds to `Cc1nc(C)c(-c2csc(NC(=O)Cc3cc(C#N)cc(C(=O)N[C@H](c4ccccc4)C(F)(F)F)c3)n2)s1` ?
< 100 nM

Which measured IC50 value corresponds to `Cc1nc(C)c(-c2csc(NC(=O)C3CC(F)(F)C3)n2)s1` ?
100 to 1000 nM

Which measured IC50 value corresponds to `O=C(Nc1nc(-c2sc(CO)nc2CO)cs1)C1CN(c2ccccc2C(F)(F)F)C1` ?
< 100 nM

Which measured IC50 value corresponds to `O=C(Nc1nc(-c2sc(CO)nc2CCCO)cs1)C1CN(c2ccc(C(F)(F)F)cc2)C1` ?
< 100 nM

Which measured IC50 value corresponds to `O=C(Cc1ccc(S(=O)(=O)C(F)(F)F)cc1)Nc1nc(-c2sc(CO)nc2CCO)cs1` ?
< 100 nM

Which measured IC50 value corresponds to `Cc1nc(C)c(-c2csc(NC(=O)CN3CCC[C@@H](c4ccccc4)C3)n2)s1` ?
100 to 1000 nM

Which measured IC50 value corresponds to `NC(=O)c1nc(CO)c(-c2csc(NC(=O)[C@H]3C[C@@H](OCc4ccc(C(F)(F)F)cc4)C3)n2)s1` ?
100 to 1000 nM

Which measured IC50 value corresponds to `Cc1nc(C)c(-c2csc(N(CCCN3CCOCC3)C(=O)Cc3ccc(S(=O)(=O)C(F)(F)F)cc3)n2)s1` ?
1000 to 8000 nM

Which measured IC50 value corresponds to `COc1cc(CC(=O)Nc2nc(-c3sc(C)nc3C)cs2)cc(C(=O)Nc2ccc(C(F)(F)F)cc2)c1` ?
< 100 nM

Which measured IC50 value corresponds to CC(=O)NC(C)c1nc(CO)sc1-c1csc(NC(=O)Cc2ccc(S(=O)(=O)C(F)(F)F)cc2)n1 (racemic) [Compound I-472] ?
1000 to 8000 nM

Which measured IC50 value corresponds to `Cc1nc(C)c(-c2csc(NC(=O)Cc3ccc(S(=O)(=O)N(C)c4ccccc4Cl)cc3)n2)s1` ?
< 100 nM

Which measured IC50 value corresponds to `Cc1nc(CO)sc1-c1csc(NC(=O)C2CN(c3ccc(C(F)(F)F)cc3)C2)n1` ?
< 100 nM

Which measured IC50 value corresponds to `Cc1nc(C)c(-c2csc(NC(=O)[C@@H]3C[C@@H](N4CCC(c5ccccc5)CC4)CN3)n2)s1` ?
1000 to 8000 nM

Which measured IC50 value corresponds to `Cc1nc(CO)c(-c2csc(NC(=O)Cc3c(F)cccc3F)n2)s1` ?
100 to 1000 nM

Which measured IC50 value corresponds to `Cc1nc(C)c(-c2csc(NC(=O)C3CN(Cc4ccc(C(F)(F)F)cc4)C3)n2)s1` ?
< 100 nM

Which measured IC50 value corresponds to `Cc1nc(C)c(-c2csc(NC(=O)c3ccc(S(=O)(=O)C(F)(F)F)cc3)n2)s1` ?
100 to 1000 nM

Which measured IC50 value corresponds to `Cc1nc(C)c(-c2csc(NC(=O)Cc3cccc(C(=O)N[C@@H](c4ccccc4)C(F)(F)F)c3)n2)s1` ?
< 100 nM

Which measured IC50 value corresponds to COc1ccc(N2CC(C(=O)Nc3nc(-c4sc(CO)nc4C)cs3)CC2=O)cc1 (stereo not drawn) ?
1000 to 8000 nM

Which measured IC50 value corresponds to `O=C(Nc1nc(-c2sc(CO)nc2CO)cs1)C1CN(c2ccc(Cl)cc2)C1` ?
< 100 nM

Which measured IC50 value corresponds to Cc1nc(C)c(-c2csc(NC(=O)C3Cc4ccccc4N3)n2)s1 (stereo not drawn) ?
100 to 1000 nM

Which measured IC50 value corresponds to Cc1nc(CO)sc1-c1csc(NC(=O)C2CC(N3CCC(F)(F)C3)C2)n1 (stereo not drawn) [Compound I-361] ?
1000 to 8000 nM

Which measured IC50 value corresponds to `Cc1nc(OCCOCc2ccccc2)sc1-c1csc(NC(=O)Cc2ccc(S(=O)(=O)C(F)(F)F)cc2)n1` ?
1000 to 8000 nM

Which measured IC50 value corresponds to `Cc1ncsc1-c1csc(NC(=O)Cc2ccc(Br)cc2)n1` ?
< 100 nM

Which measured IC50 value corresponds to `Cc1nc(C(=N)N)sc1-c1csc(NC(=O)Cc2ccc(S(=O)(=O)C(F)(F)F)cc2)n1` ?
100 to 1000 nM

Which measured IC50 value corresponds to `Cc1nc(CC(N)=O)sc1-c1csc(NC(=O)Cc2ccc(S(=O)(=O)C(F)(F)F)cc2)n1` ?
100 to 1000 nM

Which measured IC50 value corresponds to `Cc1nc(C)c(-c2csc(NC(=O)CC3CN(c4ccc(C(F)(F)F)cn4)C3)n2)s1` ?
100 to 1000 nM

Which measured IC50 value corresponds to `N#CCc1nc(CO)sc1-c1csc(NC(=O)Cc2ccc(S(=O)(=O)C(F)(F)F)cc2)n1` ?
< 100 nM

Which measured IC50 value corresponds to `NC(=O)OCC(=O)NCc1nc(CO)sc1-c1csc(NC(=O)Cc2ccc(S(=O)(=O)C(F)(F)F)cc2)n1` ?
100 to 1000 nM

Which measured IC50 value corresponds to `Cc1nc(CCl)c(-c2csc(NC(=O)Cc3ccc(S(=O)(=O)C(F)(F)F)cc3)n2)s1` ?
< 100 nM
